Test system: HCT-116
Test: Cytotoxicity against Homo sapiens (human) HCT116 cells after 48 hr by MTT assay
Format: functional, cell-based
Conditions: HCT-116, 48 h
property name: IC50

>  <chemical smiles>
C[C@H]1[C@H](OCCNC(=O)Nc2ccc([N+](=O)[O-])cc2)O[C@@H]2O[C@@]3(C)CC[C@H]4[C@H](C)CC[C@@H]1[C@@]24OO3

>  <IC50>
41 µM

$$$$
>  <chemical smiles>
C[C@H]1[C@H](OCCNC(=O)Nc2ccc(C(F)(F)F)cc2)O[C@@H]2O[C@@]3(C)CC[C@H]4[C@H](C)CC[C@@H]1[C@@]24OO3

>  <IC50>
46.4 µM

$$$$
>  <chemical smiles>
C[C@H]1[C@@H](OCCNC(=O)Nc2ccc(F)cc2)O[C@@H]2O[C@@]3(C)CC[C@H]4[C@H](C)CC[C@@H]1[C@@]24OO3

>  <IC50>
43.7 µM

$$$$
>  <chemical smiles>
Cc1c(Cl)cccc1NC(=O)NCCO[C@H]1O[C@@H]2O[C@@]3(C)CC[C@H]4[C@H](C)CC[C@@H]([C@H]1C)[C@@]24OO3

>  <IC50>
22.7 µM

$$$$

Query: Jot down IC50 (HCT-116) of C[C@H]1[C@@H](OCCNC(=O)Nc2ccc(C(F)(F)F)cc2)O[C@@H]2O[C@@]3(C)CC[C@H]4[C@H](C)CC[C@@H]1[C@@]24OO3 .
Result: 31.3 µM

Query: Tell me IC50 of C[C@H]1[C@@H](OCCNC(=O)Nc2ccccc2)O[C@@H]2O[C@@]3(C)CC[C@H]4[C@H](C)CC[C@@H]1[C@@]24OO3 when tested on HCT-116.
Result: 53.8 µM

---

Tested on: HL-60
Assay: Cytotoxicity against Homo sapiens (human) HL60 cells after 48 hr by MTT assay
Assay type: functional, cell-based
Settings: HL-60, 48 h
pIC50: −log10 of the molar value.
property name: pIC50

>  <chemical smiles>
C[C@H]1[C@@H](OCCNC(=O)Nc2ccc(F)cc2)O[C@@H]2O[C@@]3(C)CC[C@H]4[C@H](C)CC[C@@H]1[C@@]24OO3

>  <pIC50>
5.44

$$$$
>  <chemical smiles>
C[C@H]1[C@@H](OCCNC(=O)Nc2ccccc2)O[C@@H]2O[C@@]3(C)CC[C@H]4[C@H](C)CC[C@@H]1[C@@]24OO3

>  <pIC50>
5.52

$$$$

Query: State, in one line, measured pIC50 of C[C@H]1[C@H](OCCNC(=O)Nc2ccc(Br)cc2)O[C@@H]2O[C@@]3(C)CC[C@H]4[C@H](C)CC[C@@H]1[C@@]24OO3
Result: > 6.00

Query: Please report the measured pIC50 for Cc1c(Cl)cccc1NC(=O)NCCO[C@H]1O[C@@H]2O[C@@]3(C)CC[C@H]4[C@H](C)CC[C@@H]([C@H]1C)[C@@]24OO3
Result: > 6.00

Query: Kindly indicate its recorded pIC50. Item: C[C@H]1[C@H](OCCNC(=O)Nc2ccc([N+](=O)[O-])cc2)O[C@@H]2O[C@@]3(C)CC[C@H]4[C@H](C)CC[C@@H]1[C@@]24OO3
Result: > 6.00

Query: For the compound C[C@H]1[C@@H](O)O[C@@H]2O[C@@]3(C)CC[C@H]4[C@H](C)CC[C@@H]1[C@@]24OO3 , report pIC50.
Result: > 6.00

Query: Input C[C@H]1[C@@H](OCCNC(=O)Nc2ccc([N+](=O)[O-])cc2)O[C@@H]2O[C@@]3(C)CC[C@H]4[C@H](C)CC[C@@H]1[C@@]24OO3 , output reported pIC50.
Result: 5.92

Query: Tell me pIC50 reported for Cc1ccc(C)c(NC(=O)NCCO[C@H]2O[C@@H]3O[C@@]4(C)CC[C@H]5[C@H](C)CC[C@@H]([C@H]2C)[C@@]35OO4)c1
Result: > 6.00

Query: State its pIC50 for this compound: Cc1ccccc1NC(=O)NCCO[C@H]1O[C@@H]2O[C@@]3(C)CC[C@H]4[C@H](C)CC[C@@H]([C@H]1C)[C@@]24OO3
Result: 5.68
